Test system: P. falciparum (NF54 or 3D7 strain)
Assay: Assay for P. falciparum proliferation in infected human blood cells (SYBR Green)
Type: cell-based, Plasmodium falciparum
Details: Plasmodium falciparum, Erythrocyte, 72 h, NF54 or 3D7 infected human erythrocytes, 72 hours; read-out: EC50 (nM), inhibitory efficacy in delaying P. falciparum proliferation in infected human blood cells
log10 of EC50 for assorted compounds
Values below are the log10 of the recorded EC50, with nM as the unit.

-- ask Endpoint output: log10 of EC50 of "CN(C(=O)c1cn2c(-c3ccc(C(F)(F)F)cc3)cnc2cn1)c1cccc(F)c1" . Value?
-- reply 2.35

-- ask Which log10 of EC50 value is on record for "CN(c1cn2c(-c3ccc(C(F)(F)F)cc3)cnc2cn1)S(=O)(=O)c1ccc(C#N)cc1" ?
-- reply 3.51

-- ask So what's the measured log10 of EC50 for this one? "CN(C(=O)c1cn2c(-c3ccc(Cl)cc3C(F)(F)F)cnc2cn1)c1ccc(C#N)cc1"
-- reply 3.64

-- ask # lookup: log10 of EC50 of "CN(Cc1cn2c(-c3ccc(OC(F)F)cc3)cnc2cn1)c1ccc(Cl)cc1"
-- reply 2.06

-- ask For "CN(C(=O)c1ccc(Cl)cc1)c1cn2c(-c3ccc(C(F)(F)F)cc3)cnc2cn1" , what is its reported log10 of EC50?
-- reply 2.62

###

Test system: P. falciparum (NF54 or 3D7 strain)
Assay: Assay for P. falciparum proliferation in infected human blood cells (SYBR Green)
Type: cell-based, Plasmodium falciparum
Conditions: Plasmodium falciparum, Erythrocyte, 72 h, NF54 or 3D7 infected human erythrocytes, 72 hours; read-out: EC50 (nM), inhibitory efficacy in delaying P. falciparum proliferation in infected human blood cells
Could you please mark class 1 for values of EC50 below 2000 nM and class 0 for values at or above it?

Example entries begin here.
[[record]]
compound = "O=C(c1cn2c(-c3ccc(C(F)(F)F)cc3)cnc2cn1)N1CCS(=O)(=O)c2ccccc21"
class_label = "class 0"

[[record]]
compound = "CN(C(=O)c1cn2c(-c3ccc(N4CCOCC4)cc3)cnc2cn1)c1ccc(Cl)nc1"
class_label = "class 0"

[[record]]
compound = "CN(C(=O)c1cn2c(-c3ccc(NCC(C)(C)N)cc3)cnc2cn1)c1ccc(C#N)cc1"
class_label = "class 1"

[[record]]
compound = "CN(C(=O)c1cn2c(-c3ccc4[nH]nc(N)c4c3)cnc2cn1)c1ccc(C#N)cc1"
class_label = "class 0"

[[record]]
compound = "Cc1cc(C(F)(F)F)ccc1-c1cnc2cnc(C(=O)N(C)c3ccc(C#N)cc3)cn12"
class_label = "class 0"

[[record]]
compound = "Cc1ccc(N(C)Cc2cn3c(-c4ccc(C(F)(F)F)cc4)cnc3cn2)cc1"
class_label = "class 1"


-- ask Does "Cc1cccc(N(C)C(=O)c2cn3c(-c4ccc(C(F)(F)F)cc4)cnc3cn2)n1" have EC50 strictly under 2000 nM?
-- reply class 0

-- ask Record "CN(C)c1ccc(-c2cnc3cnc(C(=O)N(C)c4ccc(Cl)nc4)cn23)cn1" : is its EC50 strictly below 2000 nM?
-- reply class 0

-- ask Decide: EC50 of CN(C(=O)c1cn2c(-c3ccc(NC(=O)C(N)C4CCC4)cc3)cnc2cn1)c1ccc(C#N)cc1 (stereo not shown) strictly below 2000 nM?
-- reply class 1

-- ask Please check: EC50 for "Cc1ccc(-c2cnc3cnc(C(=O)N(C)c4ccc(Cl)nc4)cn23)cc1" , strictly under 2000 nM or not?
-- reply class 1

-- ask Regarding "CN(C(=O)c1cn2c(-c3cc4ccccc4[nH]3)cnc2cn1)c1ccc(-c2cc3ccccc3[nH]2)nc1" , kindly confirm whether its EC50 is beneath 2000 nM.
-- reply class 0

-- ask Please determine if "CN(C(=O)c1cn2c(-c3cnc(N)nc3)cnc2cn1)c1ccc(C#N)cc1" is below 2000 nM in terms of EC50.
-- reply class 0

-- ask Given "CN(C(=O)c1cn2c(-c3ccc(C(F)(F)F)c(F)c3)cnc2cn1)c1ccc(C#N)cc1" , is recorded EC50 strictly lower than 2000 nM?
-- reply class 1

-- ask Problem: For the compound "CNc1ccc(-c2cnc3cnc(C(=O)N(C)c4ccc(Cl)nc4)cn23)cc1" , is EC50 under 2000 nM?
-- reply class 0

-- ask Just wondering, is EC50 of "COc1ccc(-c2cnc3cnc(C(=O)N(C)c4ccc(Cl)cc4)cn23)cc1" below 2000 nM?
-- reply class 1

-- ask Regarding "CCCOc1ccc(-c2cnc3cnc(C(=O)N(C)c4ccc(C#N)cc4)cn23)cn1" , kindly confirm whether its EC50 is beneath 2000 nM.
-- reply class 0

###

Tested on: P. falciparum (NF54 or 3D7 strain)
Assay: Assay for P. falciparum proliferation in infected human blood cells (SYBR Green)
Assay type: cell-based, Plasmodium falciparum
Conditions: Plasmodium falciparum, Erythrocyte, 72 h, NF54 or 3D7 infected human erythrocytes, 72 hours; read-out: EC50 (nM), inhibitory efficacy in delaying P. falciparum proliferation in infected human blood cells
Below: a set of entries, each annotated with reported EC50.
Respond numerically; units are nM and should not be typed.

Below are worked cases with known answers.
[[record]]
structure_smiles_string = "CN(Cc1cn2c(-c3ccc(C(N)=O)cc3)cnc2cn1)c1ccc(Cl)cc1"
target_desc = "P. falciparum (NF54 or 3D7 strain)"
reported_property = "EC50"
unit = "nM"
experimental_value = 9

[[record]]
structure_smiles_string = "CN(C(=O)c1cn2c(-c3ccc(-c4ccn[nH]4)cc3)cnc2cn1)c1ccc(F)c(F)c1"
target_desc = "P. falciparum (NF54 or 3D7 strain)"
reported_property = "EC50"
unit = "nM"
experimental_value = 76

[[record]]
structure_smiles_string = "CN(C(=O)c1cn2c(-c3ccc(Cl)c(C(F)(F)F)c3)cnc2cn1)c1ccc(C#N)cc1"
target_desc = "P. falciparum (NF54 or 3D7 strain)"
reported_property = "EC50"
unit = "nM"
experimental_value = 2630


Consider now this further molecule.
-- ask Quick check: EC50 of "CN(C(=O)c1cn2c(-c3ccc(C(N)=O)cc3)cnc2cn1)c1ccc(F)cc1" ?
-- reply 74

###

Test system: P. falciparum (NF54 or 3D7 strain)
Test: Assay for P. falciparum proliferation in infected human blood cells (SYBR Green)
Format: cell-based, Plasmodium falciparum
Conditions: Plasmodium falciparum, Erythrocyte, 72 h, NF54 or 3D7 infected human erythrocytes, 72 hours; read-out: EC50 (nM), inhibitory efficacy in delaying P. falciparum proliferation in infected human blood cells
REPORTED PROPERTY: EC50 (nM)
Note: unit nM is implicit; provide only the numeric part.

A selection of reference data follows.
[[record]]
compound = "CN(C(=O)c1cn2c(-c3ccc(C(F)(F)F)cc3)cnc2cn1)c1ccc(F)cn1 [Compound 63]"
unit = "nM"
experimental_value = 387

[[record]]
compound = "COc1cccnc1N(C)C(=O)c1cn2c(-c3ccc(C(F)(F)F)cc3)cnc2cn1 [Compound 16]"
unit = "nM"
experimental_value = 454

[[record]]
compound = "CN(C(=O)c1cn2c(-c3ccc(C(F)(F)F)cc3F)cnc2cn1)c1ccc(C#N)cc1 [Compound 140]"
unit = "nM"
experimental_value = 436


Read the next record carefully.
-- ask Item NC(=O)c1ccc(-c2cn3c(-c4ccc(C(N)=O)cc4)cnc3cn2)cc1 [Compound 210] with P. falciparum (NF54 or 3D7 strain) - EC50?
-- reply 1980

###

Test system: P. falciparum (NF54 or 3D7 strain)
Experiment: Assay for P. falciparum proliferation in infected human blood cells (SYBR Green)
Assay type: cell-based, Plasmodium falciparum
Details: Plasmodium falciparum, Erythrocyte, 72 h, NF54 or 3D7 infected human erythrocytes, 72 hours; read-out: EC50 (nM), inhibitory efficacy in delaying P. falciparum proliferation in infected human blood cells
EC50: recorded values
Dear colleague, please return just the value in nM, with no unit written.

Solved cases (5 shown):
[[record]]
compound = "CN(C(=O)c1cn2c(-c3ccc(OC(F)F)cc3)cnc2cn1)c1ccc(F)cc1 [Compound 433]"
reported_property = "EC50"
experimental_value = 31

[[record]]
compound = "Cc1ccc(-c2cnc3cnc(C(=O)N(C)c4ccc(Cl)cc4)cn23)cc1 [Compound 432]"
reported_property = "EC50"
experimental_value = 79

[[record]]
compound = "CN(C(=O)c1cn2c(-c3ccc(C(C)(C)C)cc3)cnc2cn1)c1ccc(C#N)cc1 [Compound 118]"
reported_property = "EC50"
experimental_value = 135

[[record]]
compound = "CN(C(=O)c1cn2c(-c3cccc(C#N)c3)cnc2cn1)c1ccc(C#N)cc1 [Compound 191]"
reported_property = "EC50"
experimental_value = 7730

[[record]]
compound = "CN(C(=O)c1cn2c(-c3ccc(C(F)(F)F)cc3)cnc2cn1)c1ccc(C#N)c(F)c1 [Compound 126]"
reported_property = "EC50"
experimental_value = 125


-- ask # input compound: Cc1ccc(N(C)C(=O)c2cn3c(-c4ccc(C(F)(F)F)cc4)cnc3cn2)nc1 [Compound 491] ; wanted: its EC50
-- reply 199

-- ask Suppose we examine the compound CC(=O)c1ccc(-c2cnc3cnc(C(=O)N(C)c4ccc(C#N)cc4)cn23)cc1 [Compound 134] ; what EC50 value has been reported?
-- reply 490

-- ask Name the reported EC50 value associated with the compound CN(C(=O)c1cn2c(-c3ccc(C(F)F)cc3)cnc2cn1)c1ccc(C#N)cn1 [Compound 95]
-- reply 1050

-- ask What measured EC50 goes with CN(C(=O)c1cn2c(-c3ccc(C(F)(F)F)cc3)cnc2cn1)c1ncc(Cl)cn1 [Compound 93] ?
-- reply 4640

-- ask Looking for the measured EC50 of CN(C(=O)c1cn2c(-c3ccc(Cl)cc3)cnc2cn1)c1ccc(S(C)(=O)=O)cc1 [Compound 17] , can you help?
-- reply 602
